Give measured Ki for each item. Keep answers brief.
tested_target: D(2) dopamine receptor (Rattus norvegicus, UniProt P61169)
Sequence (P61169 whole entry): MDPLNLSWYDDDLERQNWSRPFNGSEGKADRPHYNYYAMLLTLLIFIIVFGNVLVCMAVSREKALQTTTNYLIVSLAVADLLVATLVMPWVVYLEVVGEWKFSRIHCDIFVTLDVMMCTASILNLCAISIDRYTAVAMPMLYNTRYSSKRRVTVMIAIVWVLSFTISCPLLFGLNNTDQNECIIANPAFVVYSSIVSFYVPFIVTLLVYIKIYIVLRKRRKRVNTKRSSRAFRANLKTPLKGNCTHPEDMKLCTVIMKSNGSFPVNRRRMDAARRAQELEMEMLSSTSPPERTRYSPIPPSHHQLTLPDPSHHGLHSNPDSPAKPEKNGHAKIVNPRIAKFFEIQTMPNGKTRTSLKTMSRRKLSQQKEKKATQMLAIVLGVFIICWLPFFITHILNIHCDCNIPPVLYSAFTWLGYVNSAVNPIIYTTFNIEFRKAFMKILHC
experimental_protocol: Binding affinity against dopamine receptor D2 from rat corpus striatum by using radioligand [3H]sulpiride
Give bare numbers, in nM.

c1ccc(CCCCN2C3CCCC2c2c([nH]c4ccccc24)C3)cc1 (stereo not given) :: 670
O=C(CCCCN1C2CCCC1c1c([nH]c3ccc(F)cc13)C2)c1ccccc1 (stereo not given) :: 72
O=S1(=O)c2cccc3cccc(c23)N1CCCCN1C2CCC1c1c([nH]c3ccc(F)cc13)C2 (stereo not given) :: 1010
Cc1nc2sccn2c(=O)c1CCN1CCC(=C(c2ccc(F)cc2)c2ccc(F)cc2)CC1 :: 93

Query: So what does the record say about Ki for c1ccc2c(CCCCN3C4CCC3c3c([nH]c5ccccc35)C4)c[nH]c2c1 (stereo not given) ?
Response: 853

The values you see were collected from ChEMBL document CHEMBL1127045.
